The measurements presented in this section are drawn from patent US9512087B2.

Tested on: A. fumigatus ATCC 46645
ASSAY INFO: Antifungal MIC, broth dilution
Assay type: cell-based
CONDITION INFO: Aspergillus fumigatus, ATCC46645, RPMI 1640 with MOPS, end point 48 hours, read-out: Afm01 MIC50
REPORTED METRIC: MIC50

Some entries whose results are on file:
MOLECULE: O=C(/C=C/c1cccs1)c1ccc(OC[C@](O)(Cn2cncn2)c2ccc(F)cc2F)cc1 [R-(−)-1A-13]
MIC50: > 4 µg/mL
--
MOLECULE: COc1ccc(C(=O)/C=C/c2ccc(OCC(O)(Cn3cncn3)c3ccc(F)cc3F)c(OC)c2)cc1 (stereo not drawn)
MIC50: > 4 µg/mL
--
MOLECULE: Cn1cc(/C=C/C(=O)c2ccc(OCC(O)(Cn3cncn3)c3ccc(F)cc3F)cc2)c2ccccc21 (stereo not drawn)
MIC50: > 4 µg/mL
--
MOLECULE: O=C(c1ccc(OCC(O)(Cn2cncn2)c2ccc(F)cc2F)cc1)C1OC1c1ccc(Cl)cc1Cl (stereo not drawn)
MIC50: > 4 µg/mL
--
MOLECULE: COc1ccc(/C=C/C(=O)c2ccc(OC[C@](O)(Cn3cncn3)c3ccc(F)cc3F)cc2)cc1 [R-(−)-1A-2]
MIC50: > 4 µg/mL
--
MOLECULE: COC(COc1ccc(C(=O)/C=C/c2ccc(Cl)cc2Cl)cc1)(Cn1cncn1)c1ccc(F)cc1F (stereo not drawn)
MIC50: > 4 µg/mL
--
MOLECULE: COc1ccc(/C=C/C(=O)c2ccc(OC[C@@](O)(Cn3cncn3)c3ccc(F)cc3F)cc2)cc1 [S-(+)-1A-2]
MIC50: > 4 µg/mL
--
MOLECULE: COc1cc(/C=C/C=O)ccc1OCC(O)(Cn1cncn1)c1ccc(F)cc1F (stereo not drawn)
MIC50: > 64 µg/mL
--
MOLECULE: CC(=O)/C=C/c1ccc(OCC(O)(Cn2cncn2)c2ccc(F)cc2F)cc1 (stereo not drawn)
MIC50: 8 µg/mL
--
MOLECULE: O=C(/C=C/c1ccccc1F)c1ccc(OCC(O)(Cn2cncn2)c2ccc(F)cc2F)cc1 (stereo not drawn)
MIC50: > 4 µg/mL

Give MIC50 for each of the items listed below.
1. COc1ccc(/C=C/C(=O)c2ccc(OCC(O)(Cn3cncn3)c3ccc(F)cc3F)cc2)cc1 (stereo not drawn)
2. COc1cc(/C=C/C(=O)c2ccc(OCC(O)(Cn3cncn3)c3ccc(F)cc3F)cc2)cc(OC)c1OC (stereo not drawn)

Found:
["> 4 µg/mL", "> 4 µg/mL"]

Give MIC50 for each of the items listed below.
1. COc1ccc(/C=C/C(=O)c2ccc(OCC(O)(Cn3cncn3)c3ccc(Br)cc3)cc2)cc1 (stereo not drawn)
2. O=C(/C=C/c1c2ccccc2cc2ccccc12)c1ccc(OCC(O)(Cn2cncn2)c2ccc(F)cc2F)cc1 (stereo not drawn)
3. COc1ccc(/C=C/C(=O)c2ccc(OCC(O)(Cn3cncn3)c3ccc(F)cc3)cc2)cc1 (stereo not drawn)

Found:
> 4 µg/mL
> 2 µg/mL
> 4 µg/mL

---

Consider compounds characterized by their MIC50 with A. fumigatus ATCC 46645.

COMPOUND: OC(/C=C/c1ccc(Cl)cc1Cl)c1ccc(OCC(O)(Cn2cncn2)c2ccc(F)cc2F)cc1 (stereo not shown)
REPORTED METRIC: MIC50
OBSERVED: > 4 µg/mL
//
COMPOUND: Cc1ccc(C(=O)/C=C/c2ccc(OCC(O)(Cn3cncn3)c3ccc(F)cc3F)cc2)cc1 (stereo not shown)
REPORTED METRIC: MIC50
OBSERVED: 8 µg/mL
//
COMPOUND: O=C(/C=C/c1ccc(Cl)cc1Cl)c1ccc(OCC(O)(Cn2cncn2)c2ccc(F)cc2F)cc1 (stereo not shown)
REPORTED METRIC: MIC50
OBSERVED: > 4 µg/mL
//
COMPOUND: O=C(/C=C/c1ccccc1)c1ccc(OCC(O)(Cn2cncn2)c2ccc(F)cc2F)cc1 (stereo not shown)
REPORTED METRIC: MIC50
OBSERVED: > 2 µg/mL
//
COMPOUND: O=C(/C=C/c1ccc(OCC(O)(Cn2cncn2)c2ccc(F)cc2F)cc1)c1ccc(Cl)cc1Cl (stereo not shown)
REPORTED METRIC: MIC50
OBSERVED: > 4 µg/mL
//
COMPOUND: O=C(/C=C/c1ccc2ccccc2c1)c1ccc(OCC(O)(Cn2cncn2)c2ccc(F)cc2F)cc1 (stereo not shown)
REPORTED METRIC: MIC50
OBSERVED: > 4 µg/mL

# evaluate next
Lookup: Hello, please tell me recorded MIC50 for this one: O=C(/C=C/c1ccc(Cl)cc1)c1ccc(OC[C@](O)(Cn2cncn2)c2ccc(F)cc2F)cc1 [R-(−)-1A-6]
Found: > 4 µg/mL

---

Kindly supply the reported MIC50 values for the records listed here.
Tested on: C. krusei ATCC 6258
ASSAY INFO: Antifungal MIC, broth dilution
Assay type: cell-based
CONDITION INFO: Pichia kudriavzevii, ATCC6258, RPMI 1640 with MOPS, end point 48 hours, read-out: Ck01 MIC50
One number for each entry, in µg/mL.

COMPOUND: O=C(/C=C/c1ccc(OCC(O)(Cn2cncn2)c2ccc(F)cc2F)cc1)c1ccc(Cl)cc1Cl (stereo not drawn) [Compound 1A-22]
SYSTEM UNDER TEST: C. krusei ATCC 6258
MIC50, µg/mL: 2

Give MIC50 for each of the items listed below.
1. COc1ccc(C(=O)/C=C/c2ccc(OCC(O)(Cn3cncn3)c3ccc(F)cc3F)cc2)cc1 (stereo not drawn) [Compound 1A-20]
2. O=C(/C=C/c1ccc(Cl)cc1)c1ccc(OCC(O)(Cn2cncn2)c2ccc(F)cc2)cc1 (stereo not drawn) [Compound 1A-12]
3. OC(Cn1cncn1)(Cn1cncn1)c1ccc(F)cc1F [FLU, fluconazole]
4. COc1ccc(/C=C/C(=O)c2ccc(OCC(O)(Cn3cncn3)c3ccc(F)cc3F)cc2)cc1 (stereo not drawn) [Compound 1A-2]
5. COc1ccc(/C=C/C(=O)c2ccc(OCC(O)(Cn3cncn3)c3ccc(F)cc3)cc2)cc1 (stereo not drawn) [Compound 1A-10]
6. O=C(/C=C/c1ccc(Cl)cc1)c1ccc(OCC(O)(Cn2cncn2)c2ccc(F)cc2F)cc1 (stereo not drawn) [Compound 1A-6]
7. CC(=O)/C=C/c1ccc(OCC(O)(Cn2cncn2)c2ccc(F)cc2F)cc1 (stereo not drawn) [Compound 1A-25]
8. O=C(/C=C/c1cccs1)c1ccc(OC[C@](O)(Cn2cncn2)c2ccc(F)cc2F)cc1 [R-(−)-1A-13]

Found:
[4, 4, 32, 4, 4, 2, 8, 2]

Give MIC50 for each of the items listed below.
1. O=C(/C=C/c1ccc(Cl)cc1Cl)c1ccc(OCC(O)(Cn2cncn2)c2ccc(F)cc2F)cc1 (stereo not drawn) [Compound 1A-7]
2. O=C(/C=C/c1ccc2ccccc2c1)c1ccc(OCC(O)(Cn2cncn2)c2ccc(F)cc2F)cc1 (stereo not drawn) [Compound 1A-14]

Found:
2
1

Give MIC50 for each of the items listed below.
1. O=C(/C=C/c1ccc(Cl)cc1)c1ccc(OC[C@@](O)(Cn2cncn2)c2ccc(F)cc2F)cc1 [S-(+)-1A-6]
2. COc1cc(/C=C/C=O)ccc1OCC(O)(Cn1cncn1)c1ccc(F)cc1F (stereo not drawn) [Compound 1A-29]

Found:
1: 4; 2: 32

Give MIC50 for each of the items listed below.
1. O=C(c1ccc(OCC(O)(Cn2cncn2)c2ccc(F)cc2F)cc1)C(Br)C(Br)c1ccc(Cl)cc1Cl (stereo not drawn) [Compound 1B-1]
2. CCCCCC(=O)/C=C/c1ccc(OCC(O)(Cn2cncn2)c2ccc(F)cc2F)cc1 (stereo not drawn) [Compound 1A-26]
3. COc1ccc(/C=C/C(=O)c2ccc(OC[C@](O)(Cn3cncn3)c3ccc(F)cc3F)cc2)cc1 [R-(−)-1A-2]

Found:
[2, 1, 2]

---

Consider compounds characterized by their MIC50 with A. niger ATCC 16404.

COMPOUND: CCCCCC(=O)/C=C/c1ccc(OCC(O)(Cn2cncn2)c2ccc(F)cc2F)cc1 (stereo not drawn) [Compound 1A-26]
REPORTED METRIC: MIC50
OBSERVED: > 4 µg/mL

COMPOUND: O=C(/C=C/c1cccs1)c1ccc(OCC(O)(Cn2cncn2)c2ccc(F)cc2)cc1 (stereo not drawn) [Compound 1A-17]
REPORTED METRIC: MIC50
OBSERVED: > 8 µg/mL

# evaluate next
Lookup: Jot down MIC50 (A. niger ATCC 16404) of OC(COc1ccc(-c2cc(-c3ccc(Cl)cc3Cl)[nH]n2)cc1)(Cn1cncn1)c1ccc(F)cc1F (stereo not drawn) [Compound 1D-1] .
Found: > 4 µg/mL

---

Consider compounds characterized by their MIC50 with A. fumigatus ATCC 46645.

COMPOUND: OC(COc1ccc(C2=NNC(c3ccc(Cl)cc3Cl)C2)cc1)(Cn1cncn1)c1ccc(F)cc1F (stereo not shown) [Compound 1E-1]
MIC50: > 8 µg/mL
//
COMPOUND: O=C(/C=C/c1ccc(Cl)cc1)c1ccc(OCC(O)(Cn2cncn2)c2ccc(F)cc2F)cc1 (stereo not shown) [Compound 1A-6]
MIC50: > 4 µg/mL
//
COMPOUND: COc1ccccc1/C=C/C(=O)c1ccc(OCC(O)(Cn2cncn2)c2ccc(F)cc2F)cc1 (stereo not shown) [Compound 1A-3]
MIC50: > 8 µg/mL
//
COMPOUND: COc1ccc(C(=O)/C=C/c2ccc(OCC(O)(Cn3cncn3)c3ccc(F)cc3F)cc2)cc1 (stereo not shown) [Compound 1A-20]
MIC50: 8 µg/mL
//
COMPOUND: O=C(/C=C/c1ccc(Cl)cc1)c1ccc(OC[C@@](O)(Cn2cncn2)c2ccc(F)cc2F)cc1 [S-(+)-1A-6]
MIC50: > 4 µg/mL
//
COMPOUND: COc1cc(/C=C/C(=O)c2ccc(OCC(O)(Cn3cncn3)c3ccc(F)cc3F)cc2)cc(OC)c1 (stereo not shown) [Compound 1A-4]
MIC50: > 4 µg/mL

# evaluate next
Lookup: Hello, please tell me recorded MIC50 for this one: OC(Cn1cncn1)(Cn1cncn1)c1ccc(F)cc1F [FLU, fluconazole]
Found: > 128 µg/mL
